Values from patent US4699924A

Test: Cloud point temperature of a 0.025M aqueous solution of polyoxyethylene(8)nonylphenyl ether with 5% by weight additive
Assay type: physicochemical
Settings: Table 1; activity enhancer 5% by weight; control 33.5 °C.; in °C
Metric: Elevation of cloud point temperature

Here is how some molecules turned out for Elevation of cloud point temperature.
[
  {
    "Molecule": "CCOCCOCCO",
    "Elevation of cloud point temperature": 12.5
  },
  {
    "Molecule": "OCCCCO",
    "Elevation of cloud point temperature": 11.5
  },
  {
    "Molecule": "CCCO",
    "Elevation of cloud point temperature": 19.5
  },
  {
    "Molecule": "COCCOCCO",
    "Elevation of cloud point temperature": 10.0
  },
  {
    "Molecule": "CC(O)CCC(C)O (centres unmarked)",
    "Elevation of cloud point temperature": 18.5
  },
  {
    "Molecule": "C1CCOC1 [Tetrahydrofuran]",
    "Elevation of cloud point temperature": 11.5
  },
  {
    "Molecule": "CC(O)COCC(C)O (centres unmarked) [Di(2-hydroxypropyl) ether]",
    "Elevation of cloud point temperature": 11.3
  },
  {
    "Molecule": "CC(O)CC(C)O (centres unmarked)",
    "Elevation of cloud point temperature": 14.5
  }
]

# input for lookup
[in] Would you kindly share the measured Elevation of cloud point temperature for C1COCCO1 ?
[out] 10.5

====

Experiment: Dielectric constant of oils measured in a liquid state
Type: physicochemical
Documented Dielectric constant across a set of compounds

Here is how some compounds turned out for Dielectric constant.
[
  {
    "Smiles str": "CCCCCCCCCCCCCCCCCC",
    "Dielectric constant": "< 3.0"
  },
  {
    "Smiles str": "CCCCCCCCO",
    "Dielectric constant": 10.3
  },
  {
    "Smiles str": "CCCCCCCCCCCCCC",
    "Dielectric constant": "< 3.0"
  }
]

[in] Would you kindly share the measured Dielectric constant for CCCCCCCCCCCCCCCC ?
[out] < 3.0

====

Test: Cloud point temperature of a 0.025M aqueous solution of polyoxyethylene(8)nonylphenyl ether with 5% by weight additive
Format: physicochemical
Conditions: Table 1; activity enhancer 5% by weight; 0.025 M polyoxyethylene(8)nonylphenyl ether
Metric: Cloud point temperature (°C)
Express your answer in °C, writing the number without its unit.

Here is how some compounds turned out for Cloud point temperature.
[
  {
    "Compound": "CC(C)(C)O [2-methyl propan-2-ol]",
    "Cloud point temperature, °C": 55.0
  },
  {
    "Compound": "CCOC(=O)C(C)O (stereo not shown) [Ethyl-2hydroxypropanoate]",
    "Cloud point temperature, °C": 52.1
  },
  {
    "Compound": "C1CCOC1 [Tetrahydrofuran]",
    "Cloud point temperature, °C": 45.0
  },
  {
    "Compound": "CC(O)CC(C)O (stereo not shown) [Pentan-2,4-diol]",
    "Cloud point temperature, °C": 48.0
  },
  {
    "Compound": "CCOCCOCCO [POE(2) ethyl ether, polyoxyethylene(2) ethyl ether]",
    "Cloud point temperature, °C": 46.0
  }
]

[in] Would you kindly share the measured Cloud point temperature for CC(O)COCC(C)O (stereo not shown) [Di(2-hydroxypropyl) ether] ?
[out] 44.8

[in] What about this compound? CCCO [Propan-1-ol]
[out] 53.0

====

Documented logP across a set of compounds
Experiment: physchem
Settings: octanol/water
Form: value (number only, do not type unit).

Here is how some compounds turned out for logP.
[
  {
    "Compound": "O=Cc1ccccc1O [O--hydroxybenzaldehyde]",
    "logP": 1.7
  },
  {
    "Compound": "COC1=CC=C2[C@H]3Cc4ccc(OC)c5c4[C@@]2(CCN3C)[C@H]1O5",
    "logP": 1.91
  },
  {
    "Compound": "CN1C(=O)NC(=O)C(C)(C)C1=O",
    "logP": 1.09
  },
  {
    "Compound": "Nc1ccc(S(=O)(=O)Nc2ccnn2-c2ccccc2)cc1 [sulphaphenzole, reference compound]",
    "logP": 1.57
  },
  {
    "Compound": "Nc1ncnc2c1ncn2[C@@H]1O[C@H](COP(=O)(O)OP(=O)(O)OP(=O)(O)O)[C@@H](O)[C@H]1O [adenosine triphosphate]",
    "logP": 1.64
  }
]

[in] Would you kindly share the measured logP for CCCCCCC(O)C(=O)O (stereo not shown) [2-hydroxyoctanoic acid] ?
[out] 2.24

[in] What about this compound? CCCCCCC(=O)C(=O)O
[out] 3.2

[in] What about this compound? COc1cc(NS(=O)(=O)c2ccc(N)cc2)ncn1 [sulphamonomethoxine, reference compound]
[out] 0.85

[in] What about this compound? COc1ccc2c3c1O[C@H]1[C@@H](O)C=C[C@H]4[C@@H](C2)N(C)CC[C@@]341 [codeine, reference compound]
[out] 1.01

[in] What about this compound? Nc1ncnc2c1ncn2[C@@H]1O[C@H](COP(=O)(O)OP(=O)(O)O)[C@@H](O)[C@H]1O [adenosine diphosphate]
[out] 0.89

====

Conditions: octanol/water
Metric: Log partition coefficient

[
  {
    "Molecule": "CCN(CC)CCOC(=O)c1ccc(N)cc1 [procaine, reference compound]",
    "Log partition coefficient": 1.87
  }
]

[in] Would you kindly share the measured Log partition coefficient for O=C1C[C@@H]2OCC=C3CN4CC[C@]56c7ccccc7N1[C@H]5[C@H]2[C@H]3C[C@H]46 ?
[out] 1.93

[in] What about this molecule? O=C(O)c1cccc(O)c1 [m-hydroxybenzoic]
[out] 1.50

[in] What about this molecule? O=C(O)CCCCCCCC(=O)O [azelaic acid, reference compound]
[out] 1.57

[in] What about this molecule? Oc1ccc(O)cc1
[out] 0.59

[in] What about this molecule? CC[C@H]1OC(=O)[C@H](C)[C@@H](O[C@H]2C[C@@](C)(OC)[C@@H](O)[C@H](C)O2)[C@H](C)[C@@H](O[C@@H]2O[C@H](C)C[C@H](N(C)C)[C@H]2O)[C@](C)(O)C[C@@H](C)C(=O)[C@H](C)[C@@H](O)[C@]1(C)O [erythromycin, reference compound]
[out] 1.26

[in] What about this molecule? CC1(C)S[C@@H]2[C@H](NC(=O)Cc3ccccc3)C(=O)N2[C@H]1C(=O)O [benzyl pencillin, reference compound]
[out] 1.83

[in] What about this molecule? O=C1NS(=O)(=O)c2ccccc21
[out] 0.91

[in] What about this molecule? Nc1ccc(C(=O)O)cc1 [p-aminobenzoic acid, reference compound]
[out] 0.68

[in] What about this molecule? CCC1OC(=O)C(C)C(OC2CC(C)(OC)C(O)C(C)O2)C(C)C(OC2OC(C)C(O)C(N(C)C)C2O)C(C)(O)CC(C)C(=O)C(C)C(O)C1(C)O (centres unmarked) [4'-hydroxyerythromycin]
[out] 1.44

[in] What about this molecule? Cc1ccccc1S(N)(=O)=O [o-methylbenzene sulphonamide]
[out] 0.84

====

Assay: Cloud point temperature of a 0.025M aqueous solution of polyoxyethylene(8)nonylphenyl ether with 5% by weight additive
Type: physicochemical
Conditions: Table 2; compound which is not an activity enhancer, 5% by weight
Metric: Cloud point temperature (°C)
Express your answer in °C, writing the number without its unit.

[in] Would you kindly share the measured Cloud point temperature for OCCO [Ethan-1,2-diol] ?
[out] 33.0

[in] What about this compound? CC(C)CO [2-methyl propan-1-ol]
[out] 41.0

[in] What about this compound? OCC(O)CO [Propan-1,2,3-triol]
[out] 32.2

====

Assay: Cloud point temperature of a 0.025M aqueous solution of polyoxyethylene(8)nonylphenyl ether with 5% by weight additive
Type: physicochemical
Details: Table 2; compound which is not an activity enhancer, 5% by weight; control 33.5 °C.
Parameter threshold = 0.4 °C. Response is Criterion met when Elevation of cloud point temperature meets or exceeds it, else Criterion not met.

Example cases with answers are listed next.
[
  {
    "Compound": "OC1CCCCC1 [Cyclohexanol]",
    "Answer label": "Criterion not met"
  },
  {
    "Compound": "OCC(O)CO [Propan-1,2,3-triol]",
    "Answer label": "Criterion not met"
  },
  {
    "Compound": "CC(O)CCO (stereo not drawn) [Butan-1,3-diol]",
    "Answer label": "Criterion met"
  },
  {
    "Compound": "CC(O)CO (stereo not drawn) [Propan-1,2-diol]",
    "Answer label": "Criterion met"
  }
]

[in] Threshold query (Elevation of cloud point temperature >= 0.4 °C) on CC(C)CO [2-methyl propan-1-ol]
[out] Criterion met

[in] What about this compound? C1COCCN1 [Morpholine]
[out] Criterion met

[in] What about this compound? OCCO [Ethan-1,2-diol]
[out] Criterion not met

[in] What about this compound? CCCCO [Butan-1-ol]
[out] Criterion met
